- System: Plasmodium falciparum NF54 stage V gametocytes
- Protocol Text: viability index relative to DMSO control (fraction); higher = less gametocyte killing
- Condition Parameters: 2.5 µM, library set: Broad Institute DOS, incubation time: 72 h
In all, about 9,900 compounds were measured (“viability index relative to DMSO control”: median about 1, lowest 2% from about 0.85 on). This is one part of a sample in which the lowest values are shown more often than they occur.

# Line Notation, viability index
records = [
    ("CC(C)NC(=O)Nc1ccc2c(c1)C(=O)N(C)[C@H]1CC[C@H](CC(=O)NCc3ccc(F)cc3)O[C@H]1CO2", 0.919),
    ("COc1ccc2c3c([nH]c2c1)[C@H](CO)N(C[C@]31CCN(CC1)C(=O)Nc1ccccc1)S(C)(=O)=O", 0.121),
    ("COCC(=O)N1C[C@@]2(C1)CN([C@H](CO)c1[nH]c3cc(OC)ccc3c21)C(=O)Nc1ccccc1F", 1.03),
    ("COc1ccc2c3c([nH]c2c1)[C@H](CO)N(C[C@]31CCN(Cc2cncnc2)CC1)C(=O)CN(C)C", 0.991),
    ("COc1ccc(S(=O)(=O)Nc2cccc3c2O[C@@H](CN(C)CC2CCCCC2)[C@H](C)CN([C@H](C)CO)C3=O)cc1", 0.958),
    ("O=C(C1CCC1)N1CC(=O)N2[C@H](C1)[C@H](c1ccc(Br)cc1)[C@@H]2CO", 1.02),
    ("CCC(=O)N1C[C@]2(CCN(CC2)C(=O)Nc2ccccc2F)c2c([nH]c3cc(OC)ccc23)[C@@H]1CO", 0.642),
    ("CN1C(=O)c2cc(NC(=O)c3cccc(F)c3)ccc2OC[C@@H]2O[C@H](CC(=O)NCc3ccccc3Cl)CC[C@H]21", 1.13),
    ("C[C@H]1CN([C@@H](C)CO)C(=O)c2ccccc2-c2ccccc2CO[C@@H]1CN(C)Cc1ccccc1C(F)(F)F", 0.843),
    ("COc1ccc2c3c([nH]c2c1)[C@@H](CO)N(C[C@]31CCN(CC1)C(=O)Nc1ccc(F)cc1F)C(C)=O", 1.07),
    ("CCCN(C)C[C@@H]1OCCCC[C@H](C)Oc2ccc(NC(=O)CCCN(C)C)cc2C(=O)N([C@@H](C)CO)C[C@@H]1C", 1.1),
    ("C[C@@H]1CN([C@@H](C)CO)C(=O)c2cc(/C=C/c3ccccc3)cnc2O[C@@H]1CN(C)S(=O)(=O)c1ccccc1F", 1.02),
    ("C[C@@H]1CCCCO[C@@H](CN(C)C(=O)C2CCCCC2)[C@@H](C)CN([C@@H](C)CO)C(=O)c2cc(NS(=O)(=O)c3ccccc3)ccc2O1", 1.08),
    ("CO[C@H]1CN(C)C(=O)c2cc(NS(=O)(=O)CC(F)(F)F)ccc2OC[C@@H](C)NC[C@H]1C", 1.07),
    ("COc1cccc(-c2ccc([C@H]3[C@H]4CNC[C@@H]3N4CC3CCCCC3)cc2)c1", 0.963),
    ("CN1C(=O)c2cc(NC(=O)Nc3ccc(Cl)cc3)ccc2OC[C@@H]2O[C@@H](CC(=O)NCCN3CCCCC3)CC[C@H]21", 0.838),
    ("CN1C(=O)c2cc(NC(=O)Nc3ccc(Cl)cc3)ccc2OC[C@H]2O[C@@H](CC(=O)NCCN3CCCCC3)CC[C@H]21", 1.01),
    ("O=C(C[C@@H]1CC[C@H]2NC[C@@H](O)COC[C@@H]2O1)NCc1ccc2c(c1)OCO2", 1.07),
    ("COc1ccc(C(=O)Nc2ccc3c(c2)C(=O)N(C)[C@H]2CC[C@H](CC(=O)NCC4CC4)O[C@H]2CO3)cc1", 0.823),
    ("CCNC(=O)C[C@@H]1CC[C@H]2[C@@H](COC[C@H](O)CN2C(=O)c2ccccn2)O1", 1.14),
    ("CO[C@H]1CN(C)C(=O)c2cc(NC(=O)C3CCCCC3)ccc2OC[C@H](C)N(Cc2cccnc2)C[C@H]1C", 1.04),
    ("O=C(C1CCOCC1)N1CC(=O)N2[C@H](CO)[C@H](c3ccc(/C=C/c4ccccc4)cc3)[C@@H]2C1", 0.99),
    ("C[C@H](CO)N1C[C@H](C)[C@@H](CN(C)C(=O)c2ccccc2)Oc2ncc(C#Cc3ccccc3)cc2C1=O", 0.963),
    ("COc1ccc2c3c([nH]c2c1)[C@@H](CO)N(C[C@]31CN(CC2CC2)C1)C(=O)CN(C)C", 0.939),
    ("C[C@H]1CN([C@@H](C)CO)C(=O)c2cc(/C=C/c3ccccc3)cnc2O[C@@H]1CN(C)S(=O)(=O)c1ccccc1F", 1.03),
    ("C[C@H]1CN([C@@H](C)CO)C(=O)c2cc(C#Cc3ccccc3)cnc2O[C@@H]1CN(C)C(=O)c1ccccc1", 0.919),
    ("CO[C@@H]1CN(C)C(=O)c2cc(NC(=O)Nc3cc(F)ccc3F)ccc2OC[C@H](C)NC[C@H]1C", 1.02),
    ("COc1ccc2c3c([nH]c2c1)[C@@H](CO)N(C[C@]31CCN(CC1)C(=O)Nc1ccccc1)S(C)(=O)=O", 0.99),
    ("O=C(C[C@@H]1CC[C@@H]2[C@H](COC[C@H](O)CN2Cc2ccc(C(F)(F)F)cc2)O1)N1CCc2ccccc2C1", 1.08),
    ("C[C@@H]1CN([C@H](C)CO)C(=O)c2ccccc2-c2ccccc2CO[C@@H]1CN(C)Cc1cccc2c1OCCCO2", 0.941),
    ("CC(C)NC(=O)Nc1ccc2c(c1)C(=O)N(C)[C@H]1CC[C@@H](CC(=O)NCc3ccc(F)cc3)O[C@H]1CO2", 0.814),
]

These measurements were taken from the supplement of paper PMC4723716.
